- protocol-details: Aqueous solubility of the compound
- Assay type: physicochemical
- test-settings: buffer
attribute-measured: solubility (µM)
Give bare numbers, in µM.

# count of solved cases: 2
>  <smiles-entry>
Cc1cccc2c1n(C)c(=N)n2CC(=O)c1ccc(Cl)cc1

>  <value-units>
µM

>  <observed-result>
79

$$$$
>  <smiles-entry>
Cn1c(=N)n(CC(=O)c2ccc(Cl)cc2)c2ccccc21

>  <value-units>
µM

>  <observed-result>
84

$$$$

API: the following record is the query input.
Enquiry: Query (compound): `CC(=O)c1nc2ccccc2n1CC(=O)c1ccc([N+](=O)[O-])cc1` ; field requested: solubility
Return: 4.5

---

- protocol-details: Bioavailability in SJL mouse at 20 mg/kg, po
- Format: ADME, organism-based
- test-settings: in vivo
attribute-measured: bioavailability
# answer = value followed by unit

Enquiry: Query (molecule): `Cc1cccc2c1n(C)c(=N)n2CC(=O)c1ccc(Cl)cc1` ; field requested: bioavailability
Return: 57%

---

- system-name: C-X-C chemokine receptor type 3 (Homo sapiens, UniProt P49682)
- Sequence (P49682 whole entry): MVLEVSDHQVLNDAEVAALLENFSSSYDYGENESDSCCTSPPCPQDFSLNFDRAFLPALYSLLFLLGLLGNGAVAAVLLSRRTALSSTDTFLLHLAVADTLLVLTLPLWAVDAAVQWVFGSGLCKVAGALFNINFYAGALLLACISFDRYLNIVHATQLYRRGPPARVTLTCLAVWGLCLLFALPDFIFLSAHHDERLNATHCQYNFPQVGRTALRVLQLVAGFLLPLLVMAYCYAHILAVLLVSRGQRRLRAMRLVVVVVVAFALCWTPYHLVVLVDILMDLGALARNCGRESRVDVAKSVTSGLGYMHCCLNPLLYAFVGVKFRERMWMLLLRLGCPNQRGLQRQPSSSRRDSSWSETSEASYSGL
- protocol-details: Displacement of [125]CXCL10 from human CXCR3 expressed in CHO cells
- Assay type: cell-based
pIC50: −log10 of the molar value.
Okay, here is how we bin by pIC50: lower segment = under 5, middle segment = from 5 up to 6, upper segment = 6 and over

Worked examples follow.
>  <compound>
CC(=O)c1nc2cc(-c3ccccc3)ccc2n1CC(=O)c1ccc(Br)cc1

>  <class>
lower segment

$$$$
>  <compound>
Cn1c(=N)n(CC(=O)c2cccc(Cl)c2)c2ccccc21

>  <class>
lower segment

$$$$
>  <compound>
Cc1cccc2c1n(C)c(=N)n2CC(=O)c1ccc(Cl)cc1

>  <class>
upper segment

$$$$

Enquiry: # classify by pIC50 band: CC(O)c1nc2ccccc2n1CC(=O)c1ccc([N+](=O)[O-])cc1 (configuration not stated)
Return: lower segment

Enquiry: # classify by pIC50 band: `COc1ccc2nc(C(C)=O)n(CC(=O)c3ccc(Br)cc3)c2c1`
Return: lower segment

Enquiry: # classify by pIC50 band: `CCCc1cccc2c1n(C)c(=N)n2CC(=O)c1ccc(Cl)cc1`
Return: upper segment

Enquiry: # classify by pIC50 band: Cn1c(=N)n(CC(O)c2ccc(Br)cc2)c2ccccc21 (configuration not stated)
Return: lower segment

Enquiry: # classify by pIC50 band: `CC(=O)c1nc2ccccc2n1CC(=O)c1ccc(Br)cc1`
Return: middle segment

Enquiry: # classify by pIC50 band: `Cn1c(=N)n(CC(=O)c2ccc(Cl)cc2)c2cccc(Cl)c21`
Return: upper segment

Enquiry: # classify by pIC50 band: `Cn1c(=N)n(CC(=O)c2ccc(Cl)c(Cl)c2)c2ccccc21`
Return: middle segment

Enquiry: # classify by pIC50 band: `Cn1c(=N)n(CC(=O)c2ccccc2Cl)c2ccccc21`
Return: lower segment

Enquiry: # classify by pIC50 band: `CC(=O)c1nc2ccc(-c3ccccc3)cc2n1CC(=O)c1ccc(Br)cc1`
Return: lower segment

Enquiry: # classify by pIC50 band: Cn1c(=N)n(C[S+]([O-])c2ccc(Cl)cc2)c2ccccc21 (configuration not stated)
Return: middle segment

Enquiry: # classify by pIC50 band: `CC(=O)c1nc2ccccc2n1CC(=O)c1ccc(C#N)cc1`
Return: lower segment

Enquiry: # classify by pIC50 band: `CCc1cccc2c1n(C)c(=N)n2CC(=O)c1ccc(Cl)cc1`
Return: upper segment

Enquiry: # classify by pIC50 band: `COc1ccc2c(c1)nc(C(C)=O)n2CC(=O)c1ccc(Br)cc1`
Return: lower segment

Enquiry: # classify by pIC50 band: `Cn1c(=N)n(CCCC(=O)c2ccc(Br)cc2)c2ccccc21`
Return: middle segment

Enquiry: # classify by pIC50 band: `CC(=O)c1nc2ccccc2n1CC(=O)c1ccc([N+](=O)[O-])cc1`
Return: middle segment

Enquiry: # classify by pIC50 band: `CC(=O)c1nc2ccccc2n1CC(=O)c1ccccc1`
Return: lower segment

Enquiry: # classify by pIC50 band: `CC(=O)/N=c1/n(C)c2ccccc2n1CC(=O)c1ccc([N+](=O)[O-])cc1`
Return: lower segment

Enquiry: # classify by pIC50 band: `COc1cccc2c1nc(C(C)=O)n2CC(=O)c1ccc(Br)cc1`
Return: middle segment
